# Experimental Details: Inhibition of Mycobacterium tuberculosis Uracil-DNA glycosylase using 5' 32P end-labelled uracil DNA containing oligomer (5'-ctcaagtgUaggcatgcttttgcatgcctgcacttga-3') as substrate preincubated with enzyme for 15 mins followed by incubation on ice for 5 mins and incubation at room temperature for 5 mins and later incubated with substrate for 15 mins by radioactivity based assay
Assign classes using reported IC50 values and the ranges low value: < 800 µM; medium value: ≥ 800 µM and < 2000 µM; high value: ≥ 2000 µM, please.

> print(dat)
                                   compound  classification
1  COC(=O)c1ccc(OCCOc2ccccc2C=C2C(=O)NC(=O)NC2=O)cc1      high value
2  O=C(O)c1cc(=O)[nH]c(=O)[nH]1 [OROTIC ACID]      high value
3          COc1cccc(C=C2C(=O)NC(=O)NC2=O)c1    medium value
4   COC(=O)COc1ccc(C=C2C(=O)NC(=O)NC2=O)cc1       low value
5        O=C1NC(=O)C(=Cc2ccc(Br)cc2)C(=O)N1    medium value
6  COC(=O)c1ccccc1OCCCOc1ccc(C=C2C(=O)NC(=O)NC2=O)cc1    medium value
7  COC(=O)c1ccccc1OCCOc1ccc(C=C2C(=O)NC(=O)NC2=O)cc1       low value
8                O=C(O)c1c[nH]c(=O)[nH]c1=O      high value
9  O=C1NC(=O)C(=Cc2ccc(OCCCOc3ccccc3C(=O)O)cc2)C(=O)N1       low value

Now look at this entry.
input: Place this compound in its band: O=Cc1cc(=O)[nH]c(=O)[nH]1
output: medium value
